Biological target: T1, recombinant human sCD4 CF (manufactured by R&D Systems) (human, UniProt P01730 26-390, limits assumed)
T1 construct: Immobilized on the Biacore sensor chip; also called recombinant CD4; CD4 antigen
Experiment: SPR, Biacore T-200, CD4 immobilized on chip, as in Example 2
Property measured: pKd
# log scale: pKd equals minus log10 of the concentration in mol/L

Ask: Item anti-CD4 with barcode 4-3 (VHH, secreted from Pichia pastoris) VHH: EVQLVESGGGSVQPGGSLTLSCGTSGRTFNVMGWFRQAPGKEREFVAAVRWSSTGIYYTQYADSVKSRFTISRDNAKNTVYLEMNSLKPEDTAVYYCAADTYNSNPARWDGYDFRGQGTQVTVSS : provide pKd
Reply: 7.59

Ask: Item anti-CD4 with barcode 4-4 (VHH, secreted from Pichia pastoris) VHH: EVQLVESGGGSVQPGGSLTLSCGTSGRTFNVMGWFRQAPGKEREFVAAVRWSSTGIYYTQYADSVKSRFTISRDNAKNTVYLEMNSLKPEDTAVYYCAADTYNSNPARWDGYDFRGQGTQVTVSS : provide pKd
Reply: 7.60

Ask: Item anti-CD4 with barcode 4-8 (VHH, secreted from Pichia pastoris) VHH: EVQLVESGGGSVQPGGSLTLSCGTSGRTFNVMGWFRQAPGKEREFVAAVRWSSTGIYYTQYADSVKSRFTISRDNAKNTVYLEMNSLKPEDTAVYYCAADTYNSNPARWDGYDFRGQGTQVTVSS : provide pKd
Reply: 7.72
